test system: MALME-3M melanoma; assay: NCI tumour cell line growth inhibition, 48 h
quantity.measured: TGI (µM)
Your answer is read as µM, so omit the unit and give the number.

>>> measured_number("Cc1cc2cn3c4ccc(O)cc4nc(N)c3c2cc1C")
26.7

Consider the record given below.
Task item: Note TGI for the compound shown: CC(=O)NC1C(OCc2ccccc2)OC(CO)C(O)C1OC(C)C(=O)NC(C)C(=O)N[C@@H](CCC(=O)OCCCNC1c2ccccc2Nc2cccc([N+](=O)[O-])c21)C(N)=O (stereo not given in full)
Reply: 0.0324

----------
tested on: MDA-MB-435; assay: NCI tumour cell line growth inhibition, 48 h
quantity.measured: TGI (µM)
Could you give me the number in µM? Just the number is fine.

Recorded TGI, per entry:
>>> measured_number("COc1ccc(C2C=C(c3ccc(OC)c(OC)c3)N=C3SC=CN32)c(Br)c1 (centres undefined)")
10.5
>>> measured_number("O=C(CN(/C=C/C(=O)C(F)(F)F)c1ccc(Cl)cc1)c1ccc(F)cc1")
32.3

Task item: Item COc1cc(-c2nn(-c3cccc(NC(=O)Nc4cccc(C(F)(F)F)c4)c3)cc2-c2ccncc2)ccc1Cl : provide TGI
Reply: 1.98

Task item: Give recorded TGI. O=C1OCC2=C1C(c1ccc3c(c1)OCO3)c1cc3c(cc1O2)OCO3 (centres undefined)
Reply: 0.323

Task item: Look up and state reported TGI for O=C1C(c2ccc([N+](=O)[O-])cc2)=C(Cl)C(=O)c2c(O)cccc21
Reply: 31.9

Task item: Entry COc1cc2c3c(n(CCCNC4=NCCS4)c(=O)c2cc1OC)-c1cc2c(cc1C3=O)OCO2 needs its TGI filled in; supply it.
Reply: 1.83

Task item: Give TGI for the following molecule: O=C(Nc1ccc(Cl)cc1)Nc1ccc(Cl)c(C(F)(F)F)c1
Reply: 8.13

Task item: Tell us which TGI value is on record for CC(CCOc1ccc2ccc(=O)oc2c1)C1=CC(=O)C(C)(C)O1 (centres undefined)
Reply: 11.5

Task item: State its TGI for this molecule: O=c1c2cc(I)ccc2nc(Sc2ccc([N+](=O)[O-])cc2[N+](=O)[O-])n1Cc1ccccc1
Reply: 5.35

Task item: Fill in TGI for record COc1cc([C@@H]2c3cc4c(cc3[C@@H](OC3OC5CO[C@@H](c6cccs6)OC5C(O)C3O)[C@H]3COC(=O)[C@H]23)OCO4)cc(OC)c1O (some centres undefined)
Reply: 10.7

Task item: Return TGI (reported value) for this molecule: O=[N+]([O-])/C(C(Cl)=C(Cl)Cl)=C(/Br)SCc1ccccc1
Reply: 2.94

Task item: Please indicate TGI recorded for CNCCCNc1nc2ccccc2c2c(=O)c3cc(F)ccc3sc12
Reply: 2.94

----------
tested on: SK-MEL-28 melanoma; assay: NCI tumour cell line growth inhibition, 48 h
Below, each entry is listed with its recorded TGI.

>>> result("NCCCCCn1c2c(c3ccccc3c1=O)C(=O)c1ccccc1-2")
"3.16 µM"
>>> result("CCCCOC(=O)CC(CC(=O)OCCCC)(OC(C)=O)C(=O)OCCCC")
"> 200 µM"

Task item: Identify measured TGI associated with Nc1nc(Cl)c(N=Nc2ccc(Cl)cc2)c(NCC2(CO)CCC(CCc3ccccc3)C2)n1 (stereo unspecified)
Reply: 35.3 µM

Task item: Identify TGI associated with the molecule O=[N+]([O-])c1nccn1COCCO
Reply: > 100 µM

Task item: Quickly give me recorded TGI for C=C(C)c1cc(C(C)(C)C)cc(C(=C)C)c1S(C)(=O)=O
Reply: > 100 µM

Task item: Query TGI for COc1cc2cnc3c(c2c(OC)c1OC)Cc1cc2c(cc1-3)OCO2
Reply: > 100 µM
